SYSTEM: thrombin (UniProt P00734 328-622)
TEST_SUMMARY: pseudo-first-order inhibition kinetics, residual chromogenic activity
MEASURED_ENDPOINT: second-order rate constant of inhibition (M⁻¹ s⁻¹)
Your answer is read as M⁻¹ s⁻¹, so omit the unit and give the number.

Request: What does the data say about its second-order rate constant of inhibition? Entry: FL α1AT Pitts C232S P1′E (other, E. coli, purified; also called P1′.H8; P1′.F10) SDPQGDAAQKTDTSHHDQDHPTFNKITPNLAEFAFSLYRQLAHQSNSTNIFFSPVSIATAFAMLSLGTKADTHDEILEGLNFNLTEIPEAQIHEGFQELLRTLNQPDSQLQLTTGNGLFLSEGLKLVDKFLEDVKKLYHSEAFTVNFGDTEEAKKQINDYVEKGTQGKIVDLVKELDRDTVFALVNYIFFKGKWERPFEVKDTEEEDFHVDQVTTVKVPMMKRLGMFNIQHSKKLSSWVLLMKYLGNATAIFFLPDEGKLQHLENELTHDIITKFLENEDRRSASLHLPKLSITGTYDLKSVLGQLGITKVFSNGADLSGVTEEAPLKLSKAVHKAVLTIDEKGTEAAGAMFLEAIPREIPPEVKFNKPFVFLMIEQNTKSPLFMGKVVNPTQK
Result: 150
